target desc: EGFR (Homo sapiens)
Sequence (P00533 25-1210): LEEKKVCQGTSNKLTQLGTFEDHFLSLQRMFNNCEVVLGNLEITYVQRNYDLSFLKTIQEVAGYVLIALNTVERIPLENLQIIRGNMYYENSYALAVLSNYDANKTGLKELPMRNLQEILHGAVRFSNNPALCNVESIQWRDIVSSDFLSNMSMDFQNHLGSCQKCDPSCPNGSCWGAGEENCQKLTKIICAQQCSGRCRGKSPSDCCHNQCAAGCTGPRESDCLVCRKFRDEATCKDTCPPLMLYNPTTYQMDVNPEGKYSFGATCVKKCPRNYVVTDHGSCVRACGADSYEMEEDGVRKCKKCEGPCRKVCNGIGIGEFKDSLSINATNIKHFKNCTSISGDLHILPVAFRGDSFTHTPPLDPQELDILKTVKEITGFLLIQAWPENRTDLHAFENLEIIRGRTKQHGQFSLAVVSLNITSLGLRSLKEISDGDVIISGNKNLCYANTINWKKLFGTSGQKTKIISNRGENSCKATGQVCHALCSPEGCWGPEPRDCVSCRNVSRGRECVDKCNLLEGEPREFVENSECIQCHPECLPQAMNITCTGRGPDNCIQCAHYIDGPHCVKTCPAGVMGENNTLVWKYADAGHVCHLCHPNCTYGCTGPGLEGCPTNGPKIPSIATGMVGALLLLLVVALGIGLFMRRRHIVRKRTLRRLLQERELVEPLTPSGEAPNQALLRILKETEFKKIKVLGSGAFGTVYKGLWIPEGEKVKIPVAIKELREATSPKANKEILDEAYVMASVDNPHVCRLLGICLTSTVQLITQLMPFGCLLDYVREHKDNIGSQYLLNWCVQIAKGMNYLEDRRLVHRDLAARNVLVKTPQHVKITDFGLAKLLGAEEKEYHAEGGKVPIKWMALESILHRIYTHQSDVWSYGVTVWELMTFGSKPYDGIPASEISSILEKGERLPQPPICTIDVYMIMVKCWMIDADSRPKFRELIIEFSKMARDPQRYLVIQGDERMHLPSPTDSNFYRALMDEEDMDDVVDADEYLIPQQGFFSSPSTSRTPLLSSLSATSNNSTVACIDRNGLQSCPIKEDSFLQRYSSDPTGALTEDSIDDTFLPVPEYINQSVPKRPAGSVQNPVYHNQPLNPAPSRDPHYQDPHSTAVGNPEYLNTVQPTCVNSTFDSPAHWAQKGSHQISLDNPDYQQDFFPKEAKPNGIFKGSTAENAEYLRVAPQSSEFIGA
test description: ADP-Glo kinase assay, EGFR
Assay type: biochemical
Parameters: purchased BPS Bioscience (assay run externally by the vendor)
measurement parameters: Log[nM] 3.0; Set1
Listed molecules paired with reported EGFR % Activity Set1
readout: EGFR % Activity Set1 (%)

{"molecule": "Fc1cc(Nc2ncnc3[nH]ccc23)ccc1Cl [Compound 3]", "observed result": 1}
{"molecule": "Cc1ccccc1Nc1ncnc2[nH]ccc12 [Compound 15]", "observed result": 55}
{"molecule": "Nc1nc(Nc2cccc(Br)c2)c2cc[nH]c2n1 [Compound 8]", "observed result": 26}
{"molecule": "Cc1ccc(Nc2ncnc3[nH]ccc23)cc1 [Compound 9]", "observed result": 36}
{"molecule": "c1ccc(Oc2ccc(Nc3ncnc4[nH]ccc34)cc2)cc1 [Compound 17]", "observed result": 11}
{"molecule": "Brc1cccc(Nc2ncnc3[nH]ccc23)c1 [Compound 2]", "observed result": 1}
{"molecule": "COc1ccc(Nc2ncnc3[nH]ccc23)cc1 [Compound 6]", "observed result": 72}
{"molecule": "Clc1ccc(Nc2ncnc3[nH]ccc23)cc1Cl [Compound 5]", "observed result": 2}
{"molecule": "Brc1ccc(Nc2ncnc3[nH]ccc23)cc1 [Compound 10]", "observed result": 14}
{"molecule": "Cc1cccc(Nc2ncnc3[nH]ccc23)c1 [Compound 12]", "observed result": 5}
{"molecule": "FC(F)(F)c1cccc(Nc2ncnc3[nH]ccc23)c1 [Compound 13]", "observed result": 8}
{"molecule": "c1ccc(Nc2ncnc3[nH]ccc23)cc1 [Compound 1]", "observed result": 24}
{"molecule": "Clc1cccc(Nc2ncnc3[nH]ccc23)c1 [Compound 11]", "observed result": 3}
{"molecule": "Clc1ccc(Nc2ncnc3[nH]ccc23)cc1 [Compound 4]", "observed result": 10}
{"molecule": "c1ccc(Cc2ccc(Nc3ncnc4[nH]ccc34)cc2)cc1 [Compound 18]", "observed result": 8}
{"molecule": "Clc1ccccc1Nc1ncnc2[nH]ccc12 [Compound 14]", "observed result": 36}
{"molecule": "Clc1ccc(Nc2ncnc3[nH]ccc23)cc1Br [Compound 7]", "observed result": 1}

* * *

target desc: aurora A kinase (AURKA) (Homo sapiens, UniProt O14965)
Construct: purchased BPS Bioscience (assay run externally by the vendor)
Sequence (O14965 1-403): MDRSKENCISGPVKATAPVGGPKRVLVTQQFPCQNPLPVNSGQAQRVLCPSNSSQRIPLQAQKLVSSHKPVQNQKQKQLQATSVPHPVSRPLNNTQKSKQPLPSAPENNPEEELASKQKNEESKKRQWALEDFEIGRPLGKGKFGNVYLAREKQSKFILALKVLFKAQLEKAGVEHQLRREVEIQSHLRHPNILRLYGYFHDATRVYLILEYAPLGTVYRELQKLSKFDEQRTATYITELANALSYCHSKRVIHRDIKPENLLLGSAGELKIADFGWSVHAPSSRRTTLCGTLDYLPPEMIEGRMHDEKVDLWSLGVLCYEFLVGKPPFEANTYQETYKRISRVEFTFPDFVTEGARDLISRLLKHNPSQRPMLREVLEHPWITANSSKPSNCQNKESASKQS
test description: ADP-Glo kinase assay, Aurora A
Type: biochemical
measurement parameters: 10 µM ATP/0.2 mg/ml Kemptide; read-out: Aurora A IC50 (dose-response curve, supplement)
pIC50: −log10 of the molar value.
readout: pIC50

{"structure as smiles": "Cc1ccccc1Nc1ncnc2[nH]ccc12", "observed result": 5.07}
{"structure as smiles": "Cc1cccc(Nc2ncnc3[nH]ccc23)c1", "observed result": 5.47}
{"structure as smiles": "Nc1nc(Nc2cccc(Br)c2)c2cc[nH]c2n1", "observed result": 5.35}
{"structure as smiles": "c1ccc(Cc2ccc(Nc3ncnc4[nH]ccc34)cc2)cc1", "observed result": 5.30}
{"structure as smiles": "Clc1ccc(Nc2ncnc3[nH]ccc23)cc1Br", "observed result": 5.48}
{"structure as smiles": "Brc1cccc(Nc2ncnc3[nH]ccc23)c1", "observed result": 5.70}
